Origin of the recorded values: patent CN117425675A

binders and their reported pEC50
tested system: T1, human TNFR2 expressed on cells (stably overexpressed on HEK293T, CHO-K1 or Jurkat cells; endogenous on THP1) (human (Homo sapiens), UniProt P20333 23-461)
T1 construct: also called 人TNFR2; hTNFR2
T1 sequence: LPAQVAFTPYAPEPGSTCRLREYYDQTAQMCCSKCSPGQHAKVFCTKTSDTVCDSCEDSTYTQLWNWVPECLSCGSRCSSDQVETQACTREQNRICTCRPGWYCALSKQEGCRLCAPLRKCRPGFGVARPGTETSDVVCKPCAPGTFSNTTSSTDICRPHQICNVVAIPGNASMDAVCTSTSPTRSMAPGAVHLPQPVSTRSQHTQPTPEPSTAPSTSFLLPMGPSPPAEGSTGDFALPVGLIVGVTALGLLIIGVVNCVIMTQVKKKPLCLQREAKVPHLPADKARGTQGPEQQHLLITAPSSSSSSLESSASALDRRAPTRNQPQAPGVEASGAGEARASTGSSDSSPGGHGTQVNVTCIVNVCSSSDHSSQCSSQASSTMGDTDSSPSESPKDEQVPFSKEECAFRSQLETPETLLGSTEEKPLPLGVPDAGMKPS
protocol: binding to cells stably overexpressing human TNFR2 (flow cytometry / imaging; text says HEK293T, table title says CHO-K1)
Scale: pEC50 equals -log10([C]), with [C] in mol/L.

Worked set:
{"binder": "R2_mAb-1 (antibody, V domains shown, The VH/VL pair is read from parallel lists; also called R2-1) VH: QVQLVESGGGVVQPGRSLRLSCAASGFTFSSYGMHWVRQAPGKGLEWVAVIWFDEDNKDYADSVKGRFTISRDNSKNTLYLQMSSLRAEDTAVYYCARDNDILTGYYYYYGMDVWGQGTTVTVSS VL: DIQLTQSPSFLSASVGDRVTITCRASQDISSYLAWYQQKPGKAPKLLIYAASTLQSGVPSRFSGSGSGTEFTLTISSLQPEDFATYYCQQLNSYPPTFGQGTKVEIK", "pEC50": 10.00}
{"binder": "R2_mAb-2 (antibody, V domains shown, also called R2-2) VH: QVQLVQSGPEVKKPGASVKVSCKASGYTFTNYGISWVRQAPGQGLEWMGWINAYNGNTNYAQKLQGRVTMTTDTSTSTAYMELRSLRSDDTAVYYCARDGGYGSGTYHNDYYYYYGMDVWGQGTTVTVSS VL: EIVLTQSPDFQSMTPEEKVTITCRASQSIGSNLHWYQQKPDQSPKLLIKFASQSISGVPSRFSGSGSGTDFTLTINSLEAEDAATYYCHQSSSLPFTFGPGTKVDIK", "pEC50": 9.46}
{"binder": "R2_mAb-3 (antibody, V domains shown, also called R2-3) VH: QVQLQESGPGLVKPSETLSLTCTVSGGSISSYYWSWIRQAPGKGLEWIGYIYYSGSTNYNPSLKSRVTISVDTSKNQFSLKLSSVTAADTAVYYCARDDGSSDYGMDVWGQGTTVTVSS VL: AIQLTQSPSSLSASVGDRVTITCRASQGISSALAWYQQKPGKAPKLLIYDASSLESGVPSRFTGSGTDFTLTISSLQPEDFATYYCQQFNNYMYTFGQGTKLEIK", "pEC50": 9.42}

The record that follows has no pEC50 shown yet.
// query What does the record list as pEC50 for R2_mAb-5 (antibody, V domains shown, The mouse IgG2a, IgG1 and IgG1 D265A chimeras were used only in the tumour models; also called R2-5) VH: QVQLVQSGAEVKKPGASVTVSCKASGYTFSTYGIIWVRQAPGQGLEWMGWISAFNGNANSAQKLQDRVTMTTDTSTSTAYMELRSLRSDDTAVYYCARGEDFFDYWGQGTLVTVSS VL: DIVMTQTPLSSPVTLGQPASISCRSSQSLVHSDGNTYLSWLQQRPGQPPRLLIYKVSSRFSGVPDRFSGSGAGTDFTLKISRVEAEDVGVYYCTQSTQFPFTFGRGTKLEIK ?
// result 10.00
